Recorded values, source patent US20230241038A1.

- Target or test system: RNA construct containing CUG repeats (RNA hairpin 1; SEQ ID NO:1)
- Procedure summary: MicroScale Thermophoresis (MST) fluorescence binding assay, RNA hairpin 1
- Experimental setup: RNA hairpin 1 (CUG repeats), data not shown; read-out: KD
- Description: [The procedure below names another target; the source lists this target under the same test.] This direct binding was determined using a MicroScale Thermophoresis (MST) Fluorescence binding assays with Tideglusib and an RNA hairpin containing CUG repeats. […] The method used for the MST fluorescence assay was as follows. […] The samples were analyzed on a Monolith NT. […] The fluorescence labeled RNA construct (RNA hairpin 2; produced by Metabion) had the following sequence: […]
Experimental endpoint: Kd (µM)
Report as a plain number; the unit µM is understood.

Query :: If you can, please state the reported Kd value of CCn1c(=O)sn(Cc2ccccc2)c1=O [Compound 2] .
Result :: 31.4
